Recorded growth values for a group of compounds are listed next.
- Test system: SK-MEL-28 melanoma
- Experiment summary: NCI-60 one-dose screen, 48 h (100 = growth as untreated, 0 = no growth, -100 = all killed)
- Assay conditions: 10 µM
Compounds without any hit were thinned out: in the full panel of roughly 83,000, 20% have a hit.
Number only, in %; omit the unit.

Compound	Unit tag	growth
NC(CCc1nc2ccccc2c(=O)[nH]1)C(=O)O (stereo not given)	%	110

Identify measured growth corresponding to `O=c1c(-c2nc3ccccc3[nH]2)cc2ccccc2n1Cc1cn(Cc2ccccc2Cl)nn1`
1.94

Identify measured growth corresponding to `CCCCNc1nc(NC(C)(C)C)nc(NC(C)(C)C)n1`
61.4

Identify measured growth corresponding to `CCOC(=O)c1sc(-c2ccc(OS(=O)(=O)c3ccc(Br)s3)c(C=O)c2)nc1C`
55

Identify measured growth corresponding to `COc1ccc2c(c1)C=C1CSCC3=Cc4cc(OC)ccc4OC13O2`
60

Identify measured growth corresponding to `CCCC(=O)CC(C)=O.CCCC(=O)CC(C)=O.[Cu]`
106

Identify measured growth corresponding to `O=C1/C(=C/c2ccc(O)cc2)COc2ccc(O)cc21`
105

Identify measured growth corresponding to `Nc1ncnc(N)c1NC(=O)c1ccc(OCc2ccccc2)cc1`
117

Identify measured growth corresponding to `O=S(=O)(c1ccc(NC(=S)NC23CC4CC(CC(C4)C2)C3)cc1)N1CCCCC1`
95

Identify measured growth corresponding to `CCn1c(-c2nonc2Nc2ccc(OC)cc2)nc2ccccc21`
107

Identify measured growth corresponding to `COc1ccc2oc(=O)cc(Cn3cc(Cn4cnc5c4c(=O)n(C)c(=O)n5C)nn3)c2c1`
105

Identify measured growth corresponding to `COc1ccc(/C=C2\SC(=Nc3ccccc3)NC2=O)cc1`
-100

Identify measured growth corresponding to CCCC(c1nnnn1C1CCCCC1)N1CCN(C(=O)c2ccco2)CC1 (stereo not given)
65.6

Identify measured growth corresponding to `COc1cc(C(=O)Nc2ccc(-c3nc4ccccc4[nH]3)cc2)cc(OC)c1OC`
50

Identify measured growth corresponding to `Nc1ccc(-n2c(=O)oc3ccc(Cl)cc3c2=O)c(Cl)c1`
-10.6

Identify measured growth corresponding to `CCCCCCCCCCOC(=O)c1ccccc1C(=O)OCCCC`
119

Identify measured growth corresponding to `Nc1ccccc1-c1ccc(-c2ccc(Cl)cc2)c2c1[nH]c1ccccc12`
97.1

Identify measured growth corresponding to CCN1C(=O)N(c2ccccc2)C2NN=c3s/c(=C4\C(=O)N(C(C)C)c5ccccc54)c(=O)n3C21 (stereo not given)
62.8

Identify measured growth corresponding to `O=C(CCc1nnc2sc(COc3ccccc3)nn12)c1nc2ncccc2[nH]1`
107

Identify measured growth corresponding to `Nc1nc2c(ncn2[C@@H]2O[C@H](CS)[C@@H](O)[C@H]2O)c(=O)[nH]1`
98.6

---

- Test system: SF-295 CNS
- Experiment summary: NCI-60 one-dose screen, 48 h (100 = growth as untreated, 0 = no growth, -100 = all killed)
- Assay conditions: 10 µM unless noted
This is part of a sample that, as a whole, favours compounds with a hit. Of some 83,000 tested, about 20% had one in any assay.
Recorded growth values for a group of molecules are listed next.
Number only, in %; omit the unit.

Molecule	Measure	Unit tag	Observed result
CCOC(=O)C1=C(C)N=c2s/c(=C\c3ccccc3O)c(=O)n2C1c1ccc(OC)c2ccccc12 (stereo not given)	growth	%	-83.5
CCN1C(=O)N(CC)C2Nn3c(s/c(=C4\C(=O)N(C(C)C)c5ccccc54)c3=O)=NC21 (stereo not given)	growth	%	19
CCn1c(-c2nonc2Nc2ccc(OC)cc2)nc2ccccc21	growth	%	132
NCCNc1nc2ccccc2c2c(=O)c3cc(F)cc(Cl)c3sc12	growth	%	98.2
Nc1nonc1-n1nncc1-c1cccnc1	growth	%	98.2
O=C(Nc1ccc(I)cc1F)c1cc(Br)ccc1O	growth	%	-64.9

Write down the reported growth (system: SF-295 CNS) of `CC(=O)c1ccc2oc(=O)n(Cc3ccc(C#N)cc3)c(=O)c2c1`
99.1

Write down the reported growth (system: SF-295 CNS) of `O=c1oc2ccc(F)cc2c(=O)n1-c1ccc(I)cc1F`
-40

Write down the reported growth (system: SF-295 CNS) of `CN(C)CCCNCc1ccc(-c2ccc(F)c(Cl)c2)o1`
-18.3

Write down the reported growth (system: SF-295 CNS) of `O=C(Nc1ccc(Cl)cc1)c1cc2ccccc2cc1OP(=O)(O)O`
-7.61

Write down the reported growth (system: SF-295 CNS) of C=CCN1C(=O)/C(=c2\sc3n(c2=O)NC2C(N=3)N(CC)C(=O)N2CC)c2ccccc21 (stereo not given)
37.3

Write down the reported growth (system: SF-295 CNS) of `Cc1nc(Nc2cn[nH]c2C(=O)Nc2ccc(CN3CCN(C)CC3)cc2)c2ccsc2n1`
118

Write down the reported growth (system: SF-295 CNS) of `COc1ccc(-c2nc(N3CCN(C(=O)C4CCCCC4)CC3)c3c4c(sc3n2)CCCC4)cc1`
-82

Write down the reported growth (system: SF-295 CNS) of `Cc1[nH]c2ccccc2c(=O)c1CC=C(Cl)Cl`
-86.8

Write down the reported growth (system: SF-295 CNS) of COc1ccc(N2C(=O)CC(c3cc(OC)c(OC)c(OC)c3)C3C2=NC(=O)N3C)cc1 (stereo not given)
101

Write down the reported growth (system: SF-295 CNS) of `Cc1ccc2[nH]c(=O)cc(-n3nncc3Cn3c4ccccc4c4ccccc43)c2c1`
98.9

Write down the reported growth (system: SF-295 CNS) of CN1C(=O)N(C)C2Nn3c(s/c(=C\c4ccc(Cl)cc4Cl)c3=O)=NC21 (stereo not given)
32.4

Write down the reported growth (system: SF-295 CNS) of CN1C(=O)N(C)C2C1NN=c1s/c(=C\c3c[nH]c4ccccc34)c(=O)n12 (stereo not given)
12.8

---

- Test system: MOLT-4 leukemia
- Experiment summary: NCI-60 one-dose screen, 48 h (100 = growth as untreated, 0 = no growth, -100 = all killed)
- Assay conditions: 10 µM unless noted
The panel holds about 83,000 compounds, 20% with a hit somewhere; the sample as a whole holds those more often.
Measure: growth (%)
Number only, in %; omit the unit.

Write down the reported growth (system: MOLT-4 leukemia) of `COc1ccc(OC)c(/C=C/C(=O)c2c(C)nc3ccccc3c2/C=C/c2ccccc2)c1`
10.2

Write down the reported growth (system: MOLT-4 leukemia) of `COc1cc(NC(=O)CCSc2nc3ccccc3c(=O)n2CCc2ccccn2)cc(OC)c1OC`
87.6

Write down the reported growth (system: MOLT-4 leukemia) of `Cc1nc(Nc2cn[nH]c2C(=O)Nc2ccc(CN3CCN(C)CC3)cc2)c2ccsc2n1`
45.8

Write down the reported growth (system: MOLT-4 leukemia) of `CCN1CCN(c2cc(C)c3cc(NC(=O)c4ccc(OC)c(OC)c4)ccc3n2)CC1`
16.2

---

- System: DU-145 prostate
- Experiment summary: NCI-60 one-dose screen, 48 h
- Assay conditions: 10 µM unless noted
This is part of a sample that, as a whole, favours compounds with a hit. Of some 83,000 tested, about 20% had one in any assay. Calls of active or inactive are those of the source. The calls were made as follows: active = growth percent below 10; inactive = the rest.
Your reply should match one of these outcome classes. active, inactive

Answered examples (3):
Compound	Discrete label
CCn1c(SCC(=O)Nc2cc(C(F)(F)F)ccc2Cl)nc2ccccc2c1=O	inactive
COc1ccc(-c2nsc3c2NC(=O)CC3c2ccsc2)cc1 (centres undefined)	active
Cc1cccc(NC(=O)c2sc3nc4c(cc3c2N)CCCC4)c1C	inactive

Moving on to the next compound.
Call for entry `CCOC(=O)CSc1c(-c2ccccc2)c2cc(Cl)ccc2[nH]c1=O` :
inactive

---

- System: OVCAR-5 ovarian
- Experiment summary: NCI-60 one-dose screen, 48 h
- Assay conditions: 10 µM unless noted
About 83,000 compounds went through this panel and 20% of them were active in at least one assay; those are over-represented in the sample as a whole. Activity calls are given as the source filed them. Rule for the calls: active = growth percent below 10; inactive = the rest.
Your reply should match one of these outcome classes. active, inactive

Molecule	Discrete label
Nc1nc2c(ncn2[C@@H]2O[C@H](CS)[C@@H](O)[C@H]2O)c(=O)[nH]1	inactive

Call for entry `Cc1cc(Nc2ccc(OCc3ccccc3)cc2)nc2cc(O)ccc12` :
inactive

Call for entry `Cc1nc2ccccc2c(/C=C/c2ccc(F)cc2)c1C(N)=O` :
inactive

Call for entry `COc1ccc(C2=Nn3c(NN)nnc3SC2)cc1` :
inactive

Call for entry `O=c1nc2sc3nc4ccccc4cc3cc-2s1` :
inactive

Call for entry `Nc1no[n+]([O-])c1-c1nnc2c(n1)-c1ccccc1C2=O` :
inactive

Call for entry `O=c1oc2ccc(Cl)cc2c(=O)n1-c1cc(C(F)(F)F)cc(C(F)(F)F)c1` :
inactive

Call for entry `O=c1oc2ccc(Cl)cc2c(=O)n1-c1ccc(Cl)cc1F` :
inactive

Call for entry `COc1ccccc1N1C(=N)S/C(=C\c2ccc(OCc3ccccc3F)cc2)C1=O` :
inactive

Call for entry `O=c1oc2ccc(Br)cc2c(=O)n1-c1ccc(F)cc1F` :
inactive

Call for entry `O=C(Nc1ccc(-c2nc3ccc(NC(=O)c4ccc(Cl)cc4)cc3[nH]2)cc1)c1ccc(Cl)cc1` :
inactive
